# key: entry, value: TGI
Tested on: SK-MEL-5 melanoma
Experiment: NCI tumour cell line growth inhibition, 48 h

Compound: C=C=CC(NC(=O)c1ccccc1)(C(=O)O)C(F)(F)F (stereo not drawn)
TGI: > 100 µM

Compound: CC(=O)OC1=CC2(OC(C)=O)CC(C)(C)C1C1C(=O)C=CC(=O)C12 (stereo not drawn)
TGI: > 100 µM

Compound: CC1(C)OC2OC(C(COS(=O)(=O)C(F)(F)F)N=[N+]=[N-])C(OC(=O)c3ccccc3)C2O1 (stereo not drawn)
TGI: > 100 µM

Compound: OC1(c2ccc(Cl)cc2)c2ccccc2-c2nc3ccccc3n21 (stereo not drawn)
TGI: > 100 µM

Compound: c1ccc(OCc2nnc3n2N=C(c2ccccc2)CS3)cc1
TGI: > 100 µM

Compound: O=c1[nH]cnc2c(COCCO)c[nH]c12
TGI: > 100 µM

Compound: O=c1c2cc3c(cc2c2cccc4c2n1CCC4)OCO3
TGI: > 100 µM

Compound: CSc1nc(N)c2c(-c3ccccc3)c3c(nc2n1)CCCC3
TGI: > 100 µM

# TGI (compound: Cn1cc(C2=C(Nc3ccccc3)C(=O)NC2=O)c2ccccc21 ) is > 25 µM

Value of measured TGI for the entry COCCOCCOCCOc1cccc2c1C(=O)c1cccc(OCCOCCOCCOC)c1C2=O : > 100 µM

====

# TGI per entry
System: HT29 colon
Assay: NCI tumour cell line growth inhibition, 48 h

Compound: O=C1CSC(c2cccc(Cl)c2)N1c1ccc(-c2ccc(-n3c(-c4ccccc4)nc4ccccc4c3=O)cc2)cc1 (centres undefined)
TGI: > 100 µM
//
Compound: c1ccc2c(c1)cc1n2CCc2c-1[nH]c1ccccc21
TGI: > 10 µM
//
Compound: N/C1=C/C(=O)NC(=O)c2c(c3ccccc3oc2=O)C1
TGI: > 100 µM

Alright, here's another compound for you.
// TGI value for CCOC(=O)c1c(SC(=O)c2ccc(OC)cc2)n(-c2ccccc2)c(=S)n(-c2ccccc2)c1=O : > 100 µM

====

System: UACC-257 melanoma
Assay: NCI tumour cell line growth inhibition, 48 h
Measured attribute: TGI

Molecule: CC1(C)Cc2c(Br)c(Br)c(Br)c(OCC(O)CN3CCN(c4ccccn4)CC3)c2O1 (centres undefined)
Tgt: UACC-257 melanoma
Result: 39.7 µM

Looking up O=C(NO)NCCCl , I found its TGI recorded as > 100 µM

get_value(item= Cc1ccc2c(c1)nc1n2C(N)=Nc2ccccc2S1 , readout=TGI) returns > 100 µM

TGI in this record for Cc1cccc(CC(Cc2ccc(C)cc2C(=O)O)C(=O)O)c1 (centres undefined) : > 100 µM

# TGI (molecule: NCCN1C(=O)c2ccccc2C1c1ccc(Cl)cc1 (centres undefined) ) is > 100 µM

What the record says about O=C(Cn1c(C(=O)c2ccccc2)nc2ccccc21)c1ccccc1 : TGI is > 100 µM

In plain terms, O=C(SCc1cccc2ccccc12)c1ccc(Cl)cc1 has a documented TGI of > 100 µM

TGI in this record for O=C1CN(c2cccc(Cl)c2)C(=O)CN1NCNN1CC(=O)N(c2cccc(Cl)c2)CC1=O : > 100 µM

Sure, the documented TGI for COC(=O)[C@H](Cc1cn(C)cn1)NC(=O)[C@H](C)NC(=O)Nc1cc(C(F)(F)F)cc(C(F)(F)F)c1 is > 10 µM

// TGI lookup, molecule = Nc1nc(Cl)c(Cl)c(NCC2(O)CCC2)n1 , result: > 100 µM

Measured TGI of N#Cc1cccc(C=NC23CC4CC(CC(C4)C2)C3)c1 : > 100 µM

The measured TGI associated with NC(Cc1ccc2nc3c4ccccc4c(=O)cc-3oc2c1)C(=O)O (centres undefined) reads > 100 µM

The recorded TGI for entry CN1CCN(c2nc(-c3csc(-c4cccs4)n3)cc3ccccc23)CC1 equals 3.68 µM

TGI reading for NC(=O)c1sc(-n2cnc3cc(C(F)(F)F)ccc32)cc1OCc1ccccc1Br : > 25 µM
